Taken from patent US20230200390A1.

This listing pairs compounds with measured Reduction [%].
- Test system: spring wheat, TRZAS Triso
- assay remarks: Seed treatment with safener; post-emergence herbicide, crop damage
- Assay type: in vivo
- test settings: 21 DAT, HER dose 32 g a.i./ha, mefenpyr-diethyl 0.5 g a.i./kg seed
measured parameter: Reduction [%] (%)

>>> quantitative_result("COCCOC(=O)C1C=CC(NC(=O)C2(C)CC(c3cc(Cl)cc(C#N)c3)=NO2)C1 (centres unmarked) [Example 1.5]")
68
>>> quantitative_result("C=CC1(C(=O)NC2C=CC(C(=O)O)C2)CC(c2cc(F)cc(F)c2)=NO1 (centres unmarked) [Example 1.58]")
89
>>> quantitative_result("C=CC1(C(=O)NC2CC=C(C(=O)OC)C2)CC(c2cc(F)cc(F)c2)=NO1 (mixture of isomers) [Example 1.60]")
89
>>> quantitative_result("COC(=O)C1CC(NC(=O)C2(OC)CC(c3cc(F)cc(F)c3)=NO2)CO1 (mixture of isomers) [Example 1.72]")
83
>>> quantitative_result("COC(=O)C1COCC1NC(=O)C1(C)CC(c2cc(F)cc(F)c2)=NO1 (mixture of isomers) [Example 1.93]")
79

====

This listing pairs compounds with measured HER effect [%] (crop damage, herbicide without safener).
- Test system: spring wheat, TRZAS Triso
- assay remarks: Seed treatment with safener; post-emergence herbicide, crop damage
- Type: in vivo
- test settings: 21 DAT, HER dose 8 g a.i./ha, no safener
measured parameter: HER effect [%] (crop damage, herbicide without safener) (%)

>>> quantitative_result("COC(=O)C1CC(NC(=O)C2(OC)CC(c3cc(F)cc(F)c3)=NO2)CO1 (mixture of isomers)")
20
>>> quantitative_result("COC(=O)C1COCC1NC(=O)C1(C)CC(c2cc(F)cc(F)c2)=NO1 (mixture of isomers)")
93
>>> quantitative_result("COCCOC(=O)C1C=CC(NC(=O)C2(C)CC(c3cc(Cl)cc(C#N)c3)=NO2)C1 (centres unmarked)")
90
>>> quantitative_result("COC(=O)C1C=CC(NC(=O)C2(C)CC(c3cc(Cl)cc(C#N)c3)=NO2)C1 (mixture of isomers)")
20
>>> quantitative_result("CC(C)OC(=O)C1CC(NC(=O)C2(C(C)(F)F)CC(c3cc(F)cc(F)c3)=NO2)CO1 (mixture of isomers)")
85
>>> quantitative_result("C=CC1(C(=O)NC2CC=C(C(=O)OC)C2)CC(c2cc(F)cc(F)c2)=NO1 (mixture of isomers)")
93
>>> quantitative_result("C=CC1(C(=O)NC2C=CC(C(=O)OC)C2)CC(c2cc(F)cc(F)c2)=NO1 (centres unmarked)")
93
>>> quantitative_result("C=CC1(C(=O)NC2C=CC(C(=O)O)C2)CC(c2cc(F)cc(F)c2)=NO1 (centres unmarked)")
93

====

This listing pairs molecules with measured HER effect [%] (crop damage, herbicide without safener).
- Tested on: spring wheat, TRZAS Triso
- assay remarks: Seed treatment with safener; post-emergence herbicide, crop damage
- Format: in vivo
- test settings: 10 DAT, HER dose 8 g a.i./ha, no safener
measured parameter: HER effect [%] (crop damage, herbicide without safener) (%)

>>> quantitative_result("CSCCOC(=O)C1C=CC(NC(=O)C2(C(F)(F)F)CC(c3cc(F)cc(F)c3)=NO2)C1 (stereo not drawn) [Example 1.7]")
93
>>> quantitative_result("C=CC1(C(=O)NC2COC(C(=O)OCCOC)C2)CC(c2cc(C)cc(F)c2)=NO1 (mixture of isomers) [Example 1.65]")
20
>>> quantitative_result("COCCOC(=O)C1C=CC(NC(=O)C2(C(F)(F)F)CC(c3cc(F)cc(C#N)c3)=NO2)C1 (stereo not drawn) [Example 1.2]")
90
>>> quantitative_result("C=CC1(C(=O)NC2COC(C(=O)OC)C2)CC(c2cc(C)cc(F)c2)=NO1 (mixture of isomers) [Example 1.71]")
50
>>> quantitative_result("CC1(C(=O)NC2CC=C(C(=O)NS(C)(=O)=O)C2)CC(c2cc(F)cc(F)c2)=NO1 (mixture of isomers) [Example 1.61]")
50
>>> quantitative_result("COC(=O)C1C=CC(NC(=O)C2(C)CC(c3cccc(F)c3)=NO2)C1 (stereo not drawn) [Example 1.20]")
20

====

- System: spring barley, HORVS Montoya
- assay remarks: Seed treatment with safener; post-emergence herbicide, crop damage
- Type: in vivo
- test settings: HER 32 g a.i./ha post-emergence, mefenpyr-diethyl 0.5 g a.i./kg seed, 21 DAT
Cut-off 60% on Reduction [%]: below means Met, at or above means Not met.

>>> assigned_category("COC(=O)C1C=CC(NC(=O)C2(C)CC(c3cccc(F)c3)=NO2)C1 (stereo not shown)")
"Not met"
>>> assigned_category("COC(=O)C1C=CC(NC(=O)C2(C)CC(c3cc(Cl)cc(C#N)c3)=NO2)C1 (mixture of isomers)")
"Not met"
>>> assigned_category("CSCCOC(=O)C1C=CC(NC(=O)C2(C(F)(F)F)CC(c3cc(F)cc(F)c3)=NO2)C1 (stereo not shown)")
"Met"
>>> assigned_category("C=CC1(C(=O)NC2C=CC(C(=O)O)C2)CC(c2cc(F)cc(F)c2)=NO1 (stereo not shown)")
"Met"
>>> assigned_category("COCCOC(=O)C1C=CC(NC(=O)C2(C)CC(c3cc(Cl)cc(C#N)c3)=NO2)C1 (stereo not shown)")
"Met"
>>> assigned_category("CC(C)OC(=O)C1CC(NC(=O)C2(C)CC(c3cccc(F)c3)=NO2)CO1 (mixture of isomers)")
"Not met"
>>> assigned_category("C=CC1(C(=O)NC2COC(C(=O)OC)C2)CC(c2cc(C)cc(F)c2)=NO1 (mixture of isomers)")
"Met"

====

- Test system: spring barley, HORVS Montoya
- assay remarks: Seed treatment with safener; post-emergence herbicide, crop damage
- Type: in vivo
- test settings: herbicide alone 8 g a.i./ha post-emergence, 21 DAT
Classification field: yes (1) = HER effect at or over 80%; no (0) = HER effect under 80%.

>>> assigned_category("CC(C)OC(=O)C1CC(NC(=O)C2(C(C)(F)F)CC(c3cc(F)cc(F)c3)=NO2)CO1 (mixture of isomers)")
"yes (1)"
>>> assigned_category("C=CC1(C(=O)NC2COC(C(=O)OC)C2)CC(c2cc(C)cc(F)c2)=NO1 (mixture of isomers)")
"no (0)"
>>> assigned_category("C=CC1(C(=O)NC2C=CC(C(=O)O)C2)CC(c2cc(F)cc(F)c2)=NO1 (stereo not shown)")
"yes (1)"
>>> assigned_category("COC(=O)C1C=CC(NC(=O)C2(C)CC(c3cc(Cl)cc(C#N)c3)=NO2)C1 (mixture of isomers)")
"no (0)"
>>> assigned_category("CC(C)OC(=O)C1CC(NC(=O)C2(C)CC(c3cccc(F)c3)=NO2)CO1 (mixture of isomers)")
"no (0)"
>>> assigned_category("COC(=O)C1C=CC(NC(=O)C2(C)CC(c3cccc(F)c3)=NO2)C1 (stereo not shown)")
"no (0)"

====

- Tested on: spring barley, HORVS Montoya
- assay remarks: Seed treatment with safener; post-emergence herbicide, crop damage
- Assay type: in vivo
- test settings: herbicide alone 2 g a.i./ha post-emergence, 21 DAT
measured parameter: HER effect (%)

>>> quantitative_result("COCCOC(=O)C1C=CC(NC(=O)C2(C)CC(c3cc(Cl)cc(C#N)c3)=NO2)C1 (stereo not shown) [Example 1.5]")
20
>>> quantitative_result("C=CC1(C(=O)NC2COC(C(=O)OC)C2)CC(c2cc(F)cc(F)c2)=NO1 (mixture of isomers) [Example 1.68]")
40
>>> quantitative_result("CC(C)OC(=O)C1CC(NC(=O)C2(C(C)(F)F)CC(c3cc(F)cc(F)c3)=NO2)CO1 (mixture of isomers) [Example 1.88]")
50
>>> quantitative_result("CSCCOC(=O)C1C=CC(NC(=O)C2(C(F)(F)F)CC(c3cc(F)cc(F)c3)=NO2)C1 (stereo not shown) [Example 1.7]")
70

====

- Test system: spring barley, HORVS Montoya
- assay remarks: Seed treatment with safener; post-emergence herbicide, crop damage
- Assay type: in vivo
- test settings: HER 32 g a.i./ha post-emergence, mefenpyr-diethyl 0.5 g a.i./kg seed, 10 DAT
measured parameter: Reduction [%]

>>> result("COC(=O)C1CC(NC(=O)C2(OC)CC(c3cc(F)cc(F)c3)=NO2)CO1 (mixture of isomers)")
"100%"
>>> result("COC(=O)C1(C)CC(NC(=O)C2(C(C)(F)F)CC(c3cc(F)cc(F)c3)=NO2)CO1 (mixture of isomers)")
"67%"
>>> result("COC(=O)C1COCC1NC(=O)C1(C)CC(c2cc(F)cc(F)c2)=NO1 (mixture of isomers)")
"22%"
>>> result("C=CCOC(=O)C1CC(NC(=O)C2(C=C)CC(c3cc(C)cc(F)c3)=NO2)CO1 (mixture of isomers)")
"63%"
>>> result("C=CC1(C(=O)NC2COC(C(=O)OCCOC)C2)CC(c2cc(C)cc(F)c2)=NO1 (mixture of isomers)")
"38%"
>>> result("CC1(C(=O)NC2CC=C(C(=O)NS(C)(=O)=O)C2)CC(c2cc(F)cc(F)c2)=NO1 (mixture of isomers)")
"67%"
>>> result("COC(=O)C1C=CC(NC(=O)C2(C(F)(F)F)CC(c3cccc(F)c3)=NO2)C1 (stereo not shown)")
"75%"
